Reported IC50 values for a set of compounds
Biological target: Alpha-glucosidase (Oryza sativa Japonica Group, UniProt Q9LGC6)
Sequence (Q9LGC6 whole entry): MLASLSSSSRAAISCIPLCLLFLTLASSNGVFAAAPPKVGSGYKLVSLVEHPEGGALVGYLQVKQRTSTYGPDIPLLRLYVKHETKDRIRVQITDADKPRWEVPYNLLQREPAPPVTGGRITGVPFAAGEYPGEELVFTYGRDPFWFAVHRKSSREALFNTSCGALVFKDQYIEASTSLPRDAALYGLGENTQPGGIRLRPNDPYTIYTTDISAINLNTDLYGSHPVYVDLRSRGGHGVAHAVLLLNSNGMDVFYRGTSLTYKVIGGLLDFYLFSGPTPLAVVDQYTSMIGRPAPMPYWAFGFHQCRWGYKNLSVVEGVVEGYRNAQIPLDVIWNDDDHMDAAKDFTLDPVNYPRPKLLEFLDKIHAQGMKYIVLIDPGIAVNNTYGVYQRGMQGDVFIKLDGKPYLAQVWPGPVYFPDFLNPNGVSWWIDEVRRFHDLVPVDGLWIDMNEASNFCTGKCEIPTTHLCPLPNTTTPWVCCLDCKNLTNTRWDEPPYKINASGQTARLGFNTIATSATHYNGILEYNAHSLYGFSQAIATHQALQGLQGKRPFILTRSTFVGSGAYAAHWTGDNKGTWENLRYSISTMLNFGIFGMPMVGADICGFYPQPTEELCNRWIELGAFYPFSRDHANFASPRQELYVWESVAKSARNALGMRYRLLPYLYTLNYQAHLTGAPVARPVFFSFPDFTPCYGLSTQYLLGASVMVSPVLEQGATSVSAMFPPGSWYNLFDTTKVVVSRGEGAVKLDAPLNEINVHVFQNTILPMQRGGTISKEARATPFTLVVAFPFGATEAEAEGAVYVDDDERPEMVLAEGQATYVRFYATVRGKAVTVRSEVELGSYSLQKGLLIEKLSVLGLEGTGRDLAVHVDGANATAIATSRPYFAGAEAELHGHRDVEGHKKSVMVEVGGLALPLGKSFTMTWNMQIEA
measurement-type: IC50 (nM)

[[record]]
compound = "CCCCCCC1NC(CO)C(O)C(O)C1O (stereo not drawn)"
measurement_type = "IC50"
unit = "nM"
observed = 800

[[record]]
compound = "CCCCCCCCN1CC(O)C(O)C(O)C1CO (stereo not drawn)"
measurement_type = "IC50"
unit = "nM"
observed = 80

[[record]]
compound = "CCCC[C@H]1N[C@@H](CO)[C@@H](O)[C@H](O)[C@@H]1O"
measurement_type = "IC50"
unit = "nM"
observed = 11000

[[record]]
compound = "CCCN1CC(O)C(O)C(O)C1CO (stereo not drawn)"
measurement_type = "IC50"
unit = "nM"
observed = 2000

[[record]]
compound = "CCCCCCCCCC1NC(CO)C(O)C(O)C1O (stereo not drawn)"
measurement_type = "IC50"
unit = "nM"
observed = 1500

[[record]]
compound = "CCCCCCCCCN1CC(O)C(O)C(O)C1CO (stereo not drawn)"
measurement_type = "IC50"
unit = "nM"
observed = 80

[[record]]
compound = "CCCCCCN1CC(O)C(O)C(O)C1CO (stereo not drawn)"
measurement_type = "IC50"
unit = "nM"
observed = 700

[[record]]
compound = "CCCC1NC(CO)C(O)C(O)C1O (stereo not drawn)"
measurement_type = "IC50"
unit = "nM"
observed = 15000


* * *

Reported IC50 values for a set of molecules
Molecular target: Sucrase-isomaltase, intestinal (Rattus norvegicus)
Experiment: Inhibition of rat intestinal isomaltase using disaccharide
measurement-type: IC50

[[record]]
molecule = "CCCCCCC1NC(CO)C(O)C(O)C1O (centres undefined)"
measurement_type = "IC50"
observed = "310 nM"

[[record]]
molecule = "CCCCCCCCCC1NC(CO)C(O)C(O)C1O (centres undefined)"
measurement_type = "IC50"
observed = "3.5 nM"

[[record]]
molecule = "CCCC1NC(CO)C(O)C(O)C1O (centres undefined)"
measurement_type = "IC50"
observed = "530 nM"

[[record]]
molecule = "CCCC[C@@H]1N[C@@H](CO)[C@@H](O)[C@H](O)[C@@H]1O"
measurement_type = "IC50"
observed = "115000 nM"

[[record]]
molecule = "CCCC[C@H]1N[C@@H](CO)[C@@H](O)[C@H](O)[C@@H]1O"
measurement_type = "IC50"
observed = "150 nM"

[[record]]
molecule = "CCCN1CC(O)C(O)C(O)C1CO (centres undefined)"
measurement_type = "IC50"
observed = "1400 nM"

[[record]]
molecule = "CCCCCCN1CC(O)C(O)C(O)C1CO (centres undefined)"
measurement_type = "IC50"
observed = "450 nM"

[[record]]
molecule = "CCCCCCCCC1NC(CO)C(O)C(O)C1O (centres undefined)"
measurement_type = "IC50"
observed = "90 nM"

[[record]]
molecule = "CCCCCCCCN1CC(O)C(O)C(O)C1CO (centres undefined)"
measurement_type = "IC50"
observed = "280 nM"


* * *

Biological target: Sucrase-isomaltase, intestinal (Rattus norvegicus, UniProt P23739)
Sequence (P23739 1-1013 limits assumed): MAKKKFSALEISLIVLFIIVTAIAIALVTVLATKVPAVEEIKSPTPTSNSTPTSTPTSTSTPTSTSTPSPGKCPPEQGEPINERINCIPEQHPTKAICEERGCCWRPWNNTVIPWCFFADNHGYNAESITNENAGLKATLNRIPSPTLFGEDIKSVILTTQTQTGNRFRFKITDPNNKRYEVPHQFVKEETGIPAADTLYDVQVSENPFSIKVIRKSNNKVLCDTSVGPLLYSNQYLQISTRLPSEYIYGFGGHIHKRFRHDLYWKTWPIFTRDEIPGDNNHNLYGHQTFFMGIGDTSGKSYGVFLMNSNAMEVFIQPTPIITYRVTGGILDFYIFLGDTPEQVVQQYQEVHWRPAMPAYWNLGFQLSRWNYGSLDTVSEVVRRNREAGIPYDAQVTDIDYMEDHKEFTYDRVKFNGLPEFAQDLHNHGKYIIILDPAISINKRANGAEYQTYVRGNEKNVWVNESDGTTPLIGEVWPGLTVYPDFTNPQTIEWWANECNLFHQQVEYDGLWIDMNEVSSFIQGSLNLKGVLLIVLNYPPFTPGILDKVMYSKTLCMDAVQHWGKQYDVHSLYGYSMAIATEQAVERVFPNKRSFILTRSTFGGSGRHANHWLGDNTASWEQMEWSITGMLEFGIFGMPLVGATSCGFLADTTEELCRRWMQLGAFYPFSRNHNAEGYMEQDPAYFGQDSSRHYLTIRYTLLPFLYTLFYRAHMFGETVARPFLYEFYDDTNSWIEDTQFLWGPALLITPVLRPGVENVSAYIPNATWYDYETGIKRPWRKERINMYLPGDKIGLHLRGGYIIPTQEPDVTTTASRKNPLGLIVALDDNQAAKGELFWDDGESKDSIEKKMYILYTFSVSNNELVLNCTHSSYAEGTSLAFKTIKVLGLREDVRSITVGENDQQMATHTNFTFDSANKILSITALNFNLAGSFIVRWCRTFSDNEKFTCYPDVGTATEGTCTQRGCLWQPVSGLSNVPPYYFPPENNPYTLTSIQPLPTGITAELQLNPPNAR
Sequence (P23739 1014-1841 limits assumed): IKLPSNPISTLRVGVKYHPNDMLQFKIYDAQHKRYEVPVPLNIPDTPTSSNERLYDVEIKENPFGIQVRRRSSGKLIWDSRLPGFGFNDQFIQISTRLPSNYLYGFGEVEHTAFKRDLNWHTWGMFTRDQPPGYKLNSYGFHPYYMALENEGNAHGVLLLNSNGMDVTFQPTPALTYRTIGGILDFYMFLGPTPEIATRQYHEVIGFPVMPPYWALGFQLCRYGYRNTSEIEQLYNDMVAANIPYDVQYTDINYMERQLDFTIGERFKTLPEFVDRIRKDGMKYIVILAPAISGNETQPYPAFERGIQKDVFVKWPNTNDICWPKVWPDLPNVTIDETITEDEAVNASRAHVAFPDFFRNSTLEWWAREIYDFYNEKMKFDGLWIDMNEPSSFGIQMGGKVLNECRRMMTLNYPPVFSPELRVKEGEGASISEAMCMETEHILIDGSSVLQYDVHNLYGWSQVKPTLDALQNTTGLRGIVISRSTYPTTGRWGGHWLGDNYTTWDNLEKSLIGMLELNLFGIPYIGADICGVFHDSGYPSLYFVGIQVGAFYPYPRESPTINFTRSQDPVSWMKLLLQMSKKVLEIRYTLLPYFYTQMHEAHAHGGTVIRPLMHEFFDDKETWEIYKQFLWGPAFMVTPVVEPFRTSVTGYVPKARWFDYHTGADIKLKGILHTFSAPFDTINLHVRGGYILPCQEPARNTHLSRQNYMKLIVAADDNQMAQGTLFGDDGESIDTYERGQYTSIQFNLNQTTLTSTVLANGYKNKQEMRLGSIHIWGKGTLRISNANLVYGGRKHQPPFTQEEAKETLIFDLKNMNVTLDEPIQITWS
Assay: Inhibition of rat intestinal maltase using disaccharide
measurement-type: log10 of IC50 (log10 of the value in µM)

[[record]]
compound = "CCCN1CC(O)C(O)C(O)C1CO (stereo not given)"
observed = 0.85

[[record]]
compound = "CCCC[C@@H]1N[C@@H](CO)[C@@H](O)[C@H](O)[C@@H]1O"
observed = 2.32

[[record]]
compound = "CCCCCCC1NC(CO)C(O)C(O)C1O (stereo not given)"
observed = 0.54

[[record]]
compound = "CCCCCCCCC1NC(CO)C(O)C(O)C1O (stereo not given)"
observed = 0.28

[[record]]
compound = "CCCCCCCCN1CC(O)C(O)C(O)C1CO (stereo not given)"
observed = 0.18

[[record]]
compound = "CCCC[C@H]1N[C@@H](CO)[C@@H](O)[C@H](O)[C@@H]1O"
observed = 1.08

[[record]]
compound = "CCCC1NC(CO)C(O)C(O)C1O (stereo not given)"
observed = 1.63

[[record]]
compound = "CCCCCCN1CC(O)C(O)C(O)C1CO (stereo not given)"
observed = 0.57

[[record]]
compound = "CCCCCCCCCC1NC(CO)C(O)C(O)C1O (stereo not given)"
observed = 0.60

[[record]]
compound = "CCCCCCCCCN1CC(O)C(O)C(O)C1CO (stereo not given)"
observed = 0.11


* * *

Assay: Inhibitory activity against alpha-Glucosidase from Yeast
Parameters: species or system Saccharomyces cerevisiae
pIC50: −log10 of the molar value.
measurement-type: pIC50

[[record]]
molecule = "CCCC[C@H]1N[C@@H](CO)[C@@H](O)[C@H](O)[C@@H]1O"
observed = 3.33

[[record]]
molecule = "CCCC1NC(CO)C(O)C(O)C1O (stereo unspecified)"
observed = 3.20

[[record]]
molecule = "OC[C@H]1NC[C@H](O)[C@@H](O)[C@@H]1O [DUVOGLUSTAT]"
observed = 3.72

[[record]]
molecule = "CCCCCCCCC1NC(CO)C(O)C(O)C1O (stereo unspecified)"
observed = 4.60

[[record]]
molecule = "CCCCCCCCCC1NC(CO)C(O)C(O)C1O (stereo unspecified)"
observed = 4.25

[[record]]
molecule = "CCCCCCC1NC(CO)C(O)C(O)C1O (stereo unspecified)"
observed = 4.28


* * *

Biological target: Sucrase-isomaltase, intestinal (Rattus norvegicus, UniProt P23739)
Assay: Inhibition of rat intestinal sucrase using disaccharide
Reported IC50 values for a set of compounds
measurement-type: IC50 (nM)

[[record]]
compound = "CCCCCCC1NC(CO)C(O)C(O)C1O (centres undefined)"
observed = 1200

[[record]]
compound = "CCCC1NC(CO)C(O)C(O)C1O (centres undefined)"
observed = 39000

[[record]]
compound = "CCCN1CC(O)C(O)C(O)C1CO (centres undefined)"
observed = 2000

[[record]]
compound = "CCCCCCN1CC(O)C(O)C(O)C1CO (centres undefined)"
observed = 450

[[record]]
compound = "CCCC[C@@H]1N[C@@H](CO)[C@@H](O)[C@H](O)[C@@H]1O"
observed = 155000

[[record]]
compound = "CCCCCCCCC1NC(CO)C(O)C(O)C1O (centres undefined)"
observed = 1500

[[record]]
compound = "CCCCCCCCN1CC(O)C(O)C(O)C1CO (centres undefined)"
observed = 660

[[record]]
compound = "CCCCCCCCCC1NC(CO)C(O)C(O)C1O (centres undefined)"
observed = 2500

[[record]]
compound = "CCCC[C@H]1N[C@@H](CO)[C@@H](O)[C@H](O)[C@@H]1O"
observed = 3600


* * *

Target: Beta-glucosidase A (Caldicellulosiruptor saccharolyticus)
Sequence (P10482 whole entry): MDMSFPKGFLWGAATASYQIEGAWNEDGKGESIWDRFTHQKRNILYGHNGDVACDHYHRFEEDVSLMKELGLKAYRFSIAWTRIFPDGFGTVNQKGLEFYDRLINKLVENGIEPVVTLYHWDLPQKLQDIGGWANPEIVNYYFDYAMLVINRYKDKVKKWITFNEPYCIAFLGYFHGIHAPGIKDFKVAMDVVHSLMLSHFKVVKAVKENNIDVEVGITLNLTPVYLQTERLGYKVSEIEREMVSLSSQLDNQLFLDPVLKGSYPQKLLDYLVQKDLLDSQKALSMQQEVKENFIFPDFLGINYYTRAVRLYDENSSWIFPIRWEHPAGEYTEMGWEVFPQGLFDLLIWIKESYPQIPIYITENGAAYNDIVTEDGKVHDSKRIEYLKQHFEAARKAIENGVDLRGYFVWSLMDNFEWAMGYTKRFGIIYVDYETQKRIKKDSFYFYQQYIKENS
pIC50: −log10 of the molar value.
measurement-type: pIC50

[[record]]
molecule = "CCCCCCCCC1NC(CO)C(O)C(O)C1O (stereo unspecified)"
assayed_system = "Beta-glucosidase A (Caldicellulosiruptor saccharolyticus)"
observed = 3.96

